Cited source: patent US20110250211A1

- tested on: T1, murine glial fibrillary acidic protein (GFAP) (mouse, UniProt P03995 1-430)
- T1 construct: Endogenous protein of brain extracts, brain sections or live brain; also called GFAP in murine brain extracts; GFAP in mouse astrocytes
- T1 sequence (P03995 whole entry): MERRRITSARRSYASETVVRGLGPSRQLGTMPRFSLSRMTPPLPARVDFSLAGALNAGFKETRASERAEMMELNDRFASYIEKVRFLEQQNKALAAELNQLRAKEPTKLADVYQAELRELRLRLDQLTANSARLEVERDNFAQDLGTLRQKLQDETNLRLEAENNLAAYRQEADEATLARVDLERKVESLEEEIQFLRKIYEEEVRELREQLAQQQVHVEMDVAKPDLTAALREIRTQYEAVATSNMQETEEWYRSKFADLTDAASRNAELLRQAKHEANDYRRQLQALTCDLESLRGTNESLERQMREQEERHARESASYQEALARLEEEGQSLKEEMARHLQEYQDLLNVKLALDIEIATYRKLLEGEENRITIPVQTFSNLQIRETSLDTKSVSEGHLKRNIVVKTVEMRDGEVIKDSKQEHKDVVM
- experimental details: Western blot of murine brain extracts

binder: VHH-E9 (VHH, Alpaca VHH with C-terminal His tag; also called anti-GFAP VHH-E9; native VHH-E9) VHH: DVQLQVSGGGSVQPGGSLRLSCAASGFTFSNYAMYWLRQAPGKGIEWVSRIGPGGSHTEYADSVKGRFTISRDNAKNTLSLQMNSLKPEDTAVYYCAITQQGSGRGQGTQVTVSS
binding result: binds
